// pIC50 lookup, one value per entry
biological target: human recombinant PDE5 (Homo sapiens, UniProt O76074); assay: PDE5 inhibition, IMAP fluorescence polarization assay
pIC50: −log10 of the molar value.

{"Compound": "CC(C)(C)C1=NN(c2ccc(C(=O)O)cc2)C(c2ccc(F)cc2)C1 (stereo not drawn)", "pIC50": 5.11}
{"Compound": "COc1ccc(OC)c(C2CC(C(C)(C)C)=NN2c2ccc(C(=O)O)cc2)c1 (stereo not drawn)", "pIC50": "< 4.30"}
{"Compound": "COc1ccccc1C1CC(C(C)(C)C)=NN1c1ccc(C(=O)O)cc1 (stereo not drawn)", "pIC50": "< 4.30"}
